Ratio IC50 for assorted molecules
# Tested on: KB
# procedureText: Resistance ratio of IC50 for human KB 8.5 cells expressing MDR1 to IC50 for MDR1 deficient human KB cells
# Format: functional
observable: Ratio IC50

1. CC[C@H](C)[C@H](NC(=O)[C@@]1(C)CCCN1C)C(=O)N(C)[C@H](C[C@@H](OC(C)=O)c1nc(C(=O)N[C@@H](Cc2ccc(N)cc2)C[C@H](C)C(=O)O)cs1)C(C)C ... 5
2. CC[C@H](C)[C@H](NC(=O)[C@H]1CCCCN1C)C(=O)N(C)[C@H](C[C@@H](OC(C)=O)c1nc(C(=O)N[C@@H](Cc2ccccc2)C[C@H](C)C(=O)OC)cs1)C(C)C ... 3
3. CC[C@H](C)[C@H](NC(=O)[C@@]1(C)CCCN1C)C(=O)N(C)[C@H](C[C@@H](OC(C)=O)c1nc(C(=O)N[C@@H](Cc2ccccc2)C[C@H](C)C(=O)O)cs1)C(C)C ... 9
4. CC[C@H](C)[C@H](NC(=O)[C@@]1(C)CCCN1C)C(=O)N(C)[C@H](C[C@@H](OC(C)=O)c1nc(C(=O)N[C@@H](Cc2ccccc2)c2nccs2)cs1)C(C)C ... 3
5. CC[C@H](C)[C@H](NC(=O)C(C)(C)N(C)C)C(=O)N(C)[C@H](C[C@@H](OC(C)=O)c1nc(C(=O)N[C@@H](Cc2ccccc2)C[C@H](C)C(=O)OC)cs1)C(C)C ... 11
